- System: DU-145 prostate
- ASSAY OVERVIEW: NCI tumour cell line growth inhibition, 48 h
# key: entry, value: GI50

Some compounds with recorded GI50:
COMPOUND	GI50
CSc1ccccc1C#Cc1ccccc1C#CCCCCO	4.73 µM
Nc1n[nH]c2ccc([C@@H]3Nc4ccc5[nH]ncc5c4[C@H]4C5C=CC(C5)[C@@H]34)cc12 (stereo partly drawn)	0.445 µM
CCCOc1nc(SCCC)nc2c1cnn2-c1ccccc1	> 100 µM
Nc1ccc(-c2ccc(N)cc2I)c(I)c1	21.8 µM
CN(C)CC1CCCCCC(CN(C)C)C1=O (stereo not drawn)	3.19 µM
COC(=O)C1=C(OC(=O)c2ccc(Cl)cc2)C(C(=O)OC)[C@@]2(O)[C@@H](C(=O)OC)C(c3ccccc3Cl)C[C@@H]1[C@@H]2C(=O)OC (stereo partly drawn)	7.46 µM
CS(=O)(=O)Nc1ccc(N=Cc2c(O)[nH]c3ccccc23)cc1	> 25 µM
C=C1CCC2C3(C)COC(c4ccccc4Br)OC3CCC2(C)C1C/C=C1/C(=O)OCC1OC(C)=O (stereo not drawn)	1.58 µM

Entry Nc1c(C(=O)Nc2ccccc2)sc2nc3c(cc12)CN(Cc1ccccc1)CC3 , GI50 reported as 14.8 µM

Entry Cc1cn2c(/C=N/Nc3ccccn3)c(-c3ccc(Cl)c([N+](=O)[O-])c3)nc2s1 , GI50 reported as 6.39 µM

Entry Cc1ccc2c(c1)C(=O)c1c-2n(CCCBr)c(=O)c2cc([N+](=O)[O-])ccc12 , GI50 reported as 49.8 µM

Entry O=C(CN1CCN(c2ccccc2)CC1)N1CCN(c2nnc(-c3ccc(Cl)cc3)c(-c3ccc(Cl)cc3)n2)CC1 , GI50 reported as 29.2 µM

Entry O=C(c1cccnc1)c1cc(-c2ccccn2)c(=O)n2ccccc12 , GI50 reported as > 100 µM

###

- Test system: SK-MEL-2 melanoma
- ASSAY OVERVIEW: NCI tumour cell line growth inhibition, 48 h
# key: entry, value: GI50

Entry COc1cc(C(=O)/C=C/c2cccnc2Nc2ccccc2)cc(OC)c1OC , GI50 reported as 1.66 µM

Entry CCCCNC(=O)NS(=O)(=O)c1ccc(N2N=C(c3cc(C)ccc3C)CC2c2cc(OC)c(OC)c(OC)c2)cc1 (centres undefined) , GI50 reported as 2.2 µM

Entry O=C(N/N=C/c1cc([N+](=O)[O-])ccc1O)c1cccc2ccccc12 , GI50 reported as 6.69 µM

Entry O=C(COc1cccc(/C=C2\COc3ccc(Cl)cc3C2=O)c1)c1ccc(Cl)cc1 , GI50 reported as 7.4 µM

###

- Tested on: NCI-H522 lung
- ASSAY OVERVIEW: NCI tumour cell line growth inhibition, 48 h
EXPERIMENTAL READOUT: log10(TGI) (log10 of the value in µM)
Give log10 of TGI, with TGI taken in µM.

Some compounds with recorded log10(TGI):
COMPOUND	log10(TGI)
CCCCCCCOc1c(OC)cc(C2CC(=O)Nc3c2c(C)nn3-c2nc3ccccc3[nH]2)cc1OC (stereo unspecified)	1.01
CCCCOCCOC1=CC(=O)c2c(O)ccc(O)c2C1=O	0.47
CCC(/C=C/c1ccccc1)=N\Nc1ccc(Cl)c(Cl)c1	1.66
CC#CC1C(OC(=O)c2ccccc2)CCCC1(CI)N=[N+]=[N-] (stereo unspecified)	1.80

Continue with the compound presented below.
Entry CN(C)CCn1c(=O)c2ccc3c4c(nn3CCN(C)C)c3cc(O)ccc3n(c1=O)c24 , log10(TGI) reported as -1.53

###

- Test system: TK-10 renal
- ASSAY OVERVIEW: NCI tumour cell line growth inhibition, 48 h
# key: entry, value: TGI

COMPOUND	REPORTED VALUE
C/C(CC1SCCCS1)=C(/C)CC1SCCCS1	> 100 µM

Entry COC(=O)[C@@]12C(=O)C(C)C(=O)[C@]1(C)C(C)=C[C@H]1[C@]3(C=O)CC[C@H](OC(C)=O)C(C)(C)[C@H]3CC[C@@]12C (some centres undefined) , TGI reported as > 100 µM

Entry FC(F)(F)c1ccc(-c2cnc(Cl)nc2NCc2cc(C(F)(F)F)cc(C(F)(F)F)c2)cc1 , TGI reported as > 100 µM

Entry CN1CCN(c2cc(-c3cc4ccccc4o3)oc(=O)c2C#N)CC1 , TGI reported as > 100 µM

Entry Cc1c(Cl)cccc1NC1=C(Cl)C(=O)N(Cc2ccccc2)C1=O , TGI reported as 15.3 µM

Entry COc1cccc2c1C(=O)c1ccc3cc(CCl)cc(O)c3c1C2=O , TGI reported as 0.823 µM

Entry CC(C)C[C@H](NC(=O)[C@@H](O)[C@H](N)Cc1ccc([N+](=O)[O-])cc1)C(=O)O , TGI reported as > 25 µM

Entry CC(C)N1C(NNC(=O)c2cnccn2)=NS(=O)(=O)c2ccccc21 , TGI reported as > 100 µM

Entry CCCc1cc(=O)n2c(C(=O)Nc3ccccc3OC)c(C(=O)Nc3ccc(F)cc3)sc2n1 , TGI reported as 64.3 µM

###

- Test system: HOP-18 NSCLC
- ASSAY OVERVIEW: NCI tumour cell line growth inhibition, 48 h
# key: entry, value: TGI

MOLECULE	REPORTED VALUE
O=C(NN1C(=O)CSC1c1ccc(C(F)(F)F)cc1)c1ccncc1 (stereo unspecified)	> 100 µM

Entry CC(c1ccccc1)/[N+]([O-])=C/c1ccccc1 (stereo unspecified) , TGI reported as > 100 µM

Entry CS/C(C)=N/OC(=O)NCCCCNc1ccc(N=[N+]=[N-])cc1 , TGI reported as > 100 µM

Entry C=CCNC(=O)NCCCC(NC(C)=O)C(=O)NCc1ccccc1 (stereo unspecified) , TGI reported as > 100 µM

Entry C=CC1C(OC2OC(CO)C(O)C(O)C2O)OC=C(C(=O)OC)C1CC=O (stereo unspecified) , TGI reported as > 100 µM

Entry C=C=C(Sc1ccccc1)C(C)(C)OC(C)=O , TGI reported as 38.5 µM

###

- Tested on: ACHN renal
- ASSAY OVERVIEW: NCI tumour cell line growth inhibition, 48 h
# key: entry, value: TGI

Some compounds with recorded TGI:
COMPOUND	MEASURED ON	EXPERIMENTAL READOUT	REPORTED VALUE
CC(C)(C)[Si](C)(C)OCCOCn1cc(F)c(=O)[nH]c1=O	ACHN renal	TGI	> 100 µM
O=C(CNC(=O)OCc1ccccc1)NCCCCC(NC(=O)OCc1ccccc1)C(=O)NC(CCCCNC(=O)CNC(=O)OCc1ccccc1)C(=O)OCc1ccccc1 (stereo not drawn)	ACHN renal	TGI	> 62.5 µM

Continue with the compound presented below.
TGI for ACHN renal with input Oc1ccc(/C=C/c2ccc3cccc(O)c3n2)cc1O equals 20.7 µM

###

- System: SK-OV-3 ovarian
- ASSAY OVERVIEW: NCI tumour cell line growth inhibition, 48 h
EXPERIMENTAL READOUT: log10 TGI (log10 of the value in µM)
Give log10 of TGI, with TGI taken in µM.

Some compounds with recorded log10 TGI:
COMPOUND	MEASURED ON	log10 TGI
Cc1ccc2c(c1)-c1c(C#N)c(N)nc(-c3ccccc3)c1CCS2(=O)=O	SK-OV-3 ovarian	1.66
CCN(CC)C(=S)N=Nc1c(O)[nH]c2ccccc12	SK-OV-3 ovarian	1.10
CCCc1cc(=O)n2c(C(=O)Nc3ccccc3OC)c(C(=O)Nc3ccc(F)cc3)sc2n1	SK-OV-3 ovarian	1.99
O=C(/C=C/c1ccc(Cl)cc1)c1cccs1	SK-OV-3 ovarian	1.89
CC1OC1C(=O)C1(O)C(C)C(O)C23OC2(C(O)c2c(O)cccc2C3=O)C1O (stereo not given)	SK-OV-3 ovarian	-0.27

Continue with the compound presented below.
Entry COc1ccc(-c2nn(-c3cccc(Cl)c3)cc2-c2cc(-c3ccccc3)nc(N)n2)cc1 , log10 TGI reported as 1.47

###

- Test system: NCI-H460 lung
- ASSAY OVERVIEW: NCI tumour cell line growth inhibition, 48 h
EXPERIMENTAL READOUT: TGI (µM)
Give just the number in µM; leave the unit off.

COMPOUND	TGI / µM
NC(=S)N/N=C1\c2ccccc2CCC1CCC1(O)CCc2ccccc2C1=O (centres undefined)	32.1

Continue with the compound presented below.
Entry CC12CC(OC(=O)[C@]1(C)O)[C@@H]([C@]1(O)CC[C@H]3[C@@H]4C[C@H]5O[C@]56[C@@H](O)C=CC(=O)[C@]6(C)[C@H]4CC[C@@]31C)C2 (some centres undefined) , TGI reported as 32.3

###

- System: IGROV1 ovarian
- ASSAY OVERVIEW: NCI tumour cell line growth inhibition, 48 h
EXPERIMENTAL READOUT: TGI (µM)
Give just the number in µM; leave the unit off.

Some compounds with recorded TGI:
COMPOUND	MEASURED ON	TGI [µM]
C=C=C(Sc1ccccc1)C(C)(C)OC(C)=O	IGROV1 ovarian	33.3
CCN1C(=O)N(CC)C2C1NN=c1s/c(=C\c3cc4ccccc4[nH]3)c(=O)n12 (stereo not drawn)	IGROV1 ovarian	12.2
Nc1ccc(-c2ccc(N)cc2I)c(I)c1	IGROV1 ovarian	56.1
CC12c3c4cc(Br)cc3Oc3cc(Br)cc(c31)Oc1cc(Br)cc(c12)O4	IGROV1 ovarian	86.6
c1ccc2cc(CNCCOCCOCCNCc3ccc4ccccc4c3)ccc2c1	IGROV1 ovarian	3.22

Entry Cc1[nH]c2ccccc2c1CCNCc1ccc(/C=C/C(=O)NO)cc1 , TGI reported as 0.0721

Entry CSC1(SC2=NCCN2)SC2(NCCN2)S1 , TGI reported as 35.7
